- Test system: Mycobacterium tuberculosis H37Rv
- assay_summary: Mycobacterium tuberculosis H37Rv Inhibition Assay (Whole Cell Assay)
- Format: cell-based
- condition_summary: ATCC 25618 / H37Rv, H37Rv strain (ATCC25618), Middlebrook 7H9, six days at 37° C., resazurin fluorescence after 48 hours
reported_property: MIC

Exercise: Give the reported MIC for Cc1cc(C)n(Cc2nnc(Nc3ccn(Cc4ccccc4Cl)n3)s2)n1 (system: Mycobacterium tuberculosis H37Rv).
Key: > 10 µM

Exercise: // repeat for Cc1csc(C(C)(O)c2nnc(Nc3ccn(Cc4cccc(Cl)c4F)n3)s2)n1 (centres unmarked) and report
Key: ≤ 1 µM

###

- assayed_target: Mycobacterium tuberculosis InhA (Mycobacterium tuberculosis, UniProt P9WGR1)
- Construct: made in house; host or cells: E. coli
- Sequence (P9WGR1 whole entry, looked up): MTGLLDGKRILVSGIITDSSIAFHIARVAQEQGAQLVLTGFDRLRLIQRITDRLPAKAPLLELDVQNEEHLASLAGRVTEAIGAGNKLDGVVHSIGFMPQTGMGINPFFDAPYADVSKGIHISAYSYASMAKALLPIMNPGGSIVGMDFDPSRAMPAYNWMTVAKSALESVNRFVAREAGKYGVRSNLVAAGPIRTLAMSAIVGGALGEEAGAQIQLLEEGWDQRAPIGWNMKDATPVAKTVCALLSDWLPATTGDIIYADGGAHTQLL
- assay_summary: Mycobacterium tuberculosis InhA Inhibition Assay (Enzyme Assay)
- Format: biochemical
- condition_summary: IC50 value, 5 nM InhA, 50 μM DDCoA, 50 μM NADH, PIPES buffer pH 6.8; initial velocities of NADH consumption
pIC50: −log10 of the molar value.
reported_property: pIC50

In [3]: df
Out[3]:
                                   molecule  result_value
0  Cc1cc(C)n(C(C)c2nnc(Nc3ccn(Cc4ccc(C(F)(F)F)cc4)n3)s2)n1 (stereo not shown)  5.95 to 6.65
1  CCOC(=O)Nc1cccc(Cn2ccc(Nc3nnc(C(C)(O)c4nc(C)cs4)s3)n2)c1F (stereo not shown) [Intermediate 121]        > 7.00
2  Cc1cc(C)n(C(C)c2nnc(Nc3ccn(Cc4ccc(F)cc4Cl)n3)s2)n1 (stereo not shown)  6.64 to 6.94
3  Cc1csc(C(C)c2nnc(Nc3ccn(Cc4c(F)ccc(C)c4F)n3)s2)n1 (stereo not shown)        > 6.94
4  Cc1csc(C(C)(O)c2nnc(Nc3ccn(Cc4c(F)ccc(C)c4F)n3)s2)n1 (stereo not shown)        > 6.95
5  Cc1cc(C)n(C(C)c2nnc(Nc3ccn(Cc4c(F)ccc(F)c4F)n3)s2)n1 (stereo not shown)        > 6.94
6  Cc1ccn(C(C)c2nnc(Nc3ccn(Cc4ccc(F)cc4Cl)n3)s2)n1 (stereo not shown)  6.62 to 6.92
7  Cc1csc([C@@](C)(O)c2nnc(Nc3ccn(Cc4c(F)cccc4F)n3)s2)n1 (single isomer, unassigned)  6.64 to 6.94

Exercise: Give the measured pIC50 of CC(=O)Nc1ccc(F)c(Cn2ccc(Nc3nnc(C(C)n4nc(C)cc4C)s3)n2)c1F (stereo not shown) [Intermediate 122] .
Key: 6.67 to 6.98

Exercise: Another molecule to look at: Cc1ccn(C(C)c2nnc(Nc3ccn(Cc4c(F)ccc(C)c4F)n3)s2)n1 (stereo not shown)
Key: > 6.92
